R1 = Variant EC50/WT EC50 values for the compounds below.
# Target desc: human TAS1R2-A574T/TAS1R3-WT (Homo sapiens, UniProt Q7RTX0+Q8TE23, A574T)
# Construct: expressed in transfected cells; host or cells: HEK293T-Gα16gust44
# Sequence (Q8TE23 20-839 A574T): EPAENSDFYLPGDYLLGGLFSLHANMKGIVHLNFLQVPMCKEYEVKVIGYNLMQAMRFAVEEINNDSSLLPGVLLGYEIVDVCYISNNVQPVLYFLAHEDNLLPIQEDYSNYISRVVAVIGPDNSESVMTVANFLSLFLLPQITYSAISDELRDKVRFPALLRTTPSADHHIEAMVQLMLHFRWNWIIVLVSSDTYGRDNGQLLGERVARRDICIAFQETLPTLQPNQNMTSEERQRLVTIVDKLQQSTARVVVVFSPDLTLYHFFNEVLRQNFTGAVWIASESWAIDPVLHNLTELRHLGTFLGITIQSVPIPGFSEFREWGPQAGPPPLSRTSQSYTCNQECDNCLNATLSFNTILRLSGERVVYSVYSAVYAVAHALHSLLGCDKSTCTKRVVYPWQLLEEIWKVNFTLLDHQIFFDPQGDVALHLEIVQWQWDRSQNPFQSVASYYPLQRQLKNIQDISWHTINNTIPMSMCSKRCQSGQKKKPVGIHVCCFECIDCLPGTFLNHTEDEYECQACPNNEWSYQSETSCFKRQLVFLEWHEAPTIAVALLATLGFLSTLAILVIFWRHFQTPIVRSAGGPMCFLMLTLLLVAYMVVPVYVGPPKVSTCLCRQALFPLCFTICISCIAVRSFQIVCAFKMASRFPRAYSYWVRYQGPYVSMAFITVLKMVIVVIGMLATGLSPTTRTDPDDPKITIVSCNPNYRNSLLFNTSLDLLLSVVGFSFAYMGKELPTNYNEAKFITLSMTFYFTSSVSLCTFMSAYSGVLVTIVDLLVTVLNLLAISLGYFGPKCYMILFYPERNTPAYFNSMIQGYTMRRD
# Sequence (Q7RTX0 21-852): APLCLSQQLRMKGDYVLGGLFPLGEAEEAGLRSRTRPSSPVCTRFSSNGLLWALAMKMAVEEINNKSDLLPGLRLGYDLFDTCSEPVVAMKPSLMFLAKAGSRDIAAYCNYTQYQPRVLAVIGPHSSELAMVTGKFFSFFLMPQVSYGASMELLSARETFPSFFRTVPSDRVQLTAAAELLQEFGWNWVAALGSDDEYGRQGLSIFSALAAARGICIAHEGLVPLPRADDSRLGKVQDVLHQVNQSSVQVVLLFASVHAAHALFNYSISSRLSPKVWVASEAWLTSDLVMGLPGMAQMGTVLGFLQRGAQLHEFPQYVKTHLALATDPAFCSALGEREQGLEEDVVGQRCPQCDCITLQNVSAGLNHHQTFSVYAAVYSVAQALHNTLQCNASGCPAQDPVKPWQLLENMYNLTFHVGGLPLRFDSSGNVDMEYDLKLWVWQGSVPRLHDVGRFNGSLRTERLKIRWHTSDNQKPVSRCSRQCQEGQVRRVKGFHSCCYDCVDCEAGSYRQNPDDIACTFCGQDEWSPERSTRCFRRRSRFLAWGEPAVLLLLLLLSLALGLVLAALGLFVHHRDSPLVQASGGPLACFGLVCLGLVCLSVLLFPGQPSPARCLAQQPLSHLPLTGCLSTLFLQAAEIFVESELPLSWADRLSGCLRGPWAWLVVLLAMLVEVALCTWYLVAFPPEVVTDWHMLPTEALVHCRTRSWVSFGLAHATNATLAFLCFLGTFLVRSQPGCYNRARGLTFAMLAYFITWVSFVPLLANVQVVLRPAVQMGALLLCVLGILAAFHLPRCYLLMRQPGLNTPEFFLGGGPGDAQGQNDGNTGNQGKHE
# Test: Calcium mobilisation assay, TAS1R2 variant A574T with TAS1R3-WT
# Type: cell-based

Compound	Target desc	R1 = Variant EC50/WT EC50
COc1ccc(CCC(=O)c2c(O)cc(O[C@@H]3O[C@H](CO)[C@@H](O)[C@H](O)[C@H]3O[C@@H]3O[C@@H](C)[C@H](O)[C@@H](O)[C@H]3O)cc2O)cc1O [NHDC, neohesperidin dihydrochalcone]	human TAS1R2-A574T/TAS1R3-WT (Homo sapiens, UniProt Q7RTX0+Q8TE23, A574T)	1.0
OC[C@H]1O[C@H](O[C@]2(CCl)O[C@H](CCl)[C@@H](O)[C@@H]2O)[C@H](O)[C@@H](O)[C@H]1Cl [Sucralose]	human TAS1R2-A574T/TAS1R3-WT (Homo sapiens, UniProt Q7RTX0+Q8TE23, A574T)	0.9
COC(=O)[C@H](Cc1ccccc1)NC(=O)[C@H](CC(=O)O)NCCC(C)(C)C [Neotame]	human TAS1R2-A574T/TAS1R3-WT (Homo sapiens, UniProt Q7RTX0+Q8TE23, A574T)	0.9
C[C@H](CC[C@@H](O[C@@H]1O[C@H](CO[C@@H]2O[C@H](CO)[C@@H](O)[C@H](O)[C@H]2O)[C@@H](O)[C@H](O)[C@H]1O[C@@H]1O[C@H](CO)[C@@H](O)[C@H](O)[C@H]1O)C(C)(C)O)[C@H]1CC[C@@]2(C)[C@@H]3CC=C4[C@@H](CC[C@H](O[C@@H]5O[C@H](CO[C@@H]6O[C@H](CO)[C@@H](O)[C@H](O)[C@H]6O)[C@@H](O)[C@H](O)[C@H]5O)C4(C)C)[C@]3(C)[C@H](O)C[C@]12C [Mogroside V, mogroside V]	human TAS1R2-A574T/TAS1R3-WT (Homo sapiens, UniProt Q7RTX0+Q8TE23, A574T)	1.0
C=C(C)[C@@H]1CC=C(/C=N/O)CC1 [Perillartine, perillartine]	human TAS1R2-A574T/TAS1R3-WT (Homo sapiens, UniProt Q7RTX0+Q8TE23, A574T)	1.1
C=C1C[C@@]23CC[C@H]4[C@@](C)(CCC[C@@]4(C)C(=O)O[C@@H]4O[C@H](CO)[C@@H](O)[C@H](O[C@@H]5O[C@H](CO)[C@@H](O)[C@H](O)[C@H]5O)[C@H]4O[C@@H]4O[C@H](CO)[C@@H](O)[C@H](O)[C@H]4O)[C@@H]2CC[C@]1(O[C@@H]1O[C@H](CO)[C@@H](O)[C@H](O[C@@H]2O[C@H](CO)[C@@H](O)[C@H](O)[C@H]2O)[C@H]1O[C@@H]1O[C@H](CO)[C@@H](O)[C@H](O)[C@H]1O)C3 [Rebaudioside M, rebaudioside M]	human TAS1R2-A574T/TAS1R3-WT (Homo sapiens, UniProt Q7RTX0+Q8TE23, A574T)	1.0
CC1=CC(=O)NS(=O)(=O)O1 [Acesulfame K, acesulfame K]	human TAS1R2-A574T/TAS1R3-WT (Homo sapiens, UniProt Q7RTX0+Q8TE23, A574T)	0.9
